Target: human FXR (Homo sapiens, UniProt Q96RI1)
Construct: expressed in transfected cells
Sequence (Q96RI1 1-486): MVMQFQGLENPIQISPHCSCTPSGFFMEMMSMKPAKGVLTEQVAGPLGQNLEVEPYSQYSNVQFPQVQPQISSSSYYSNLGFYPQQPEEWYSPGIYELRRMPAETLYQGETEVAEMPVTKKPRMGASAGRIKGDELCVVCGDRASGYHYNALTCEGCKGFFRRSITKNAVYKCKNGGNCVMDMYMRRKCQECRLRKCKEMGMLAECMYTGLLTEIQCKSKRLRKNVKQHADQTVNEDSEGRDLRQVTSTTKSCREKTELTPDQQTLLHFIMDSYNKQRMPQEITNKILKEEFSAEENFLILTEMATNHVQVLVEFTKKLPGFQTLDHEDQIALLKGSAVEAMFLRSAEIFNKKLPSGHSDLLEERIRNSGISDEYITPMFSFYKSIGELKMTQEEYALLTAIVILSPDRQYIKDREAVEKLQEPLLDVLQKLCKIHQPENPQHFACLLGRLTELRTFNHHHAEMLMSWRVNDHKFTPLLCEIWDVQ
Test: FXR reporter assay (cellular FXR activities)
Assay type: cell-based
Details: read-out: Emax (%) (GW4064 Emax = 100%)
assay-endpoint: Emax (%)

[[record]]
compound = "CCc1nc2cc(C#Cc3ccc(OCc4c(-c5c(Cl)cccc5Cl)noc4C4CC4)cc3Cl)cc(C(=O)O)c2o1 [Compound I-104]"
result_comparator = "="
numeric_result = 94

[[record]]
compound = "O=Cc1cc(C#Cc2ccc(OCc3c(-c4c(Cl)cccc4Cl)noc3C3CC3)cc2Cl)cc(C(=O)O)c1 [Compound I-41]"
result_comparator = ">"
numeric_result = 100

[[record]]
compound = "CN(C)c1cc(C#Cc2ccc(OCc3c(-c4c(Cl)cccc4Cl)noc3C3CC3)cc2Cl)ccc1C(=O)O [Compound I-23]"
result_comparator = ">"
numeric_result = 100

[[record]]
compound = "CCCc1nc2c(C(=O)O)cc(C#Cc3ccc(OCc4c(-c5c(Cl)cccc5Cl)noc4C4CC4)cc3Cl)cc2o1 [Compound I-114]"
result_comparator = ">"
numeric_result = 100

[[record]]
compound = "CCOC(=O)Nc1cc(C#Cc2ccc(OCc3c(-c4c(Cl)cccc4Cl)noc3C3CC3)cc2Cl)cc(C(=O)OC)c1 [Compound I-8]"
result_comparator = "="
numeric_result = 98

[[record]]
compound = "CS(=O)(=O)Nc1cccc(C#Cc2ccc(OCc3c(-c4c(Cl)cccc4Cl)noc3C3CC3)cc2Cl)c1 [Compound I-13]"
result_comparator = "="
numeric_result = 90

[[record]]
compound = "O=C(O)c1cc(C#Cc2ccc(OCc3c(-c4c(Cl)cccc4Cl)noc3C3CC3)cc2Cl)cc(C2CC2)c1 [Compound I-64]"
result_comparator = ">"
numeric_result = 100

[[record]]
compound = "Cc1c(N)cc(C(=O)O)cc1C#Cc1ccc(OCc2c(-c3c(Cl)cccc3Cl)noc2C2CC2)cc1Cl [Compound I-60]"
result_comparator = "="
numeric_result = 98

[[record]]
compound = "CN(C)CCn1ccc2c(C#Cc3ccc(OCc4c(-c5c(Cl)cccc5Cl)noc4C4CC4)cc3Cl)cc(C(=O)O)cc21 [Compound I-92]"
result_comparator = "="
numeric_result = 87


These data points were gathered from patent US10988449B2.
